Biological target: GST-Bfl-1 (Homo sapiens)
Construct: lacking their C-terminal transmembrane domains (about the last 20 amino acids) (“ΔTM”); made in house; host or cells: XL-1 Blue E. coli, pGEX 4T-1
Sequence (Q16548 1-155 limits assumed): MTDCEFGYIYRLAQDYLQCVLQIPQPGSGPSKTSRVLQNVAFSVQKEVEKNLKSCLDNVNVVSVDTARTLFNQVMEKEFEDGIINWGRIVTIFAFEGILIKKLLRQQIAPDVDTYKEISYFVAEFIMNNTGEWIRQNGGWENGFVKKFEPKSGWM
Experiment: Bfl-1/FITC-Bid BH3 competitive fluorescence polarization assay
Assay type: binding
Conditions: primary HTS hits, MLSCN library (PubChem SIDs), Table 5B
Procedure: A FPA was performed to determine the binding affinity of FITC-Bid BH3 peptide to Bcl-2 proteins. […] IC50 determinations were performed using GraphPad Prism software (GraphPad, Inc., San Diego, Calif.). […] Fluorescence polarization was measured after 10 min. Compounds that reduced the fluorescence polarization by 50% were considered hits.
quantity-measured: % Activity (%)
Write down the numeric answer in % and omit the unit.

Below are worked cases with known answers.
[in] // lookup % Activity for `C=CCn1c(SCC(=O)OC)nc2sc3c(c2c1=O)CCN(C)C3`
[out] 53.2

[in] Can you handle `CC(=O)Nc1ccc(S(=O)(=O)/N=C2/C(=O)c3ccccc3C(O)=C2N2CCN(Cc3ccccc3)CC2)cc1` next?
[out] 50.6

[in] Can you handle `CN(CC(=O)Nc1c(Cl)cccc1Cl)C(=O)CCCN1C(=O)c2ccccc2C1=O` next?
[out] 57.1

Now for the compound whose % Activity we want.
[in] // lookup % Activity for `CCOc1cc(/C=C2\C(=O)N(c3nc(-c4ccc(Br)cc4)cs3)N=C2c2ccccc2)ccc1O`
[out] 68.2

====

Here the recorded % Activity is given for each entry.
Biological target: GST-Bfl-1 (Homo sapiens, UniProt Q16548)
Construct: lacking their C-terminal transmembrane domains (about the last 20 amino acids) (“ΔTM”); made in house; host or cells: XL-1 Blue E. coli, pGEX 4T-1
Sequence (Q16548 1-155 limits assumed): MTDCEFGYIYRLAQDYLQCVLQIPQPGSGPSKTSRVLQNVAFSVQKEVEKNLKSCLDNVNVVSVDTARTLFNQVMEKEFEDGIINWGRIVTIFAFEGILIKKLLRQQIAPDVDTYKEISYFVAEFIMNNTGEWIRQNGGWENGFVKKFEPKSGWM
Assay: Bfl-1/FITC-Bid BH3 competitive fluorescence polarization assay
Format: binding
Details: primary HTS hits, MLSCN library (PubChem SIDs), Table 5B
Write down the numeric answer in % and omit the unit.

Below are worked cases with known answers.
[in] // lookup % Activity for O=C(COC(=O)c1cncc(Br)c1)NCc1ccco1 [Compound 3715512]
[out] 55.4

[in] Can you handle COc1ccc(NC(=O)c2cc(CN3C(=O)c4ccccc4C3=O)ccc2OC)cn1 [Compound 3713992] next?
[out] 66.9

[in] Can you handle O=C(CSc1nc(O)c2ccccc2n1)c1ccc(O)c(O)c1 [Compound 4242102] next?
[out] 64.2

[in] Can you handle Cc1cc2c(cc1C)NC(c1c(C)n(C)n(-c3ccccc3)c1=O)C1=C(O)CC(C)(C)CC1=N2 (stereo not shown) [Compound 4265815] next?
[out] 58.3

[in] Can you handle Cc1ccc(S(=O)(=O)N2CCCCC2)cc1C(=O)Nc1nc[nH]n1 [Compound 3716232] next?
[out] 50.5

More entries:
[in] // lookup % Activity for Cc1nc2ccc(C(=O)O)cc2c2c1CC(C)S2 (stereo not shown) [Compound 4259932]
[out] 54.7

[in] Can you handle O=C1c2ccccc2CC1Sc1nnc(-c2ccccn2)o1 (stereo not shown) [Compound 842657] next?
[out] 65.7

[in] Can you handle COc1cc2c(C#N)c(N3CCN(C)CC3)nc(N)c2c(N)n1 [Compound 14746488] next?
[out] 51.4

====

target: UniProt P10415
Sequence (P10415 1-218 limits assumed): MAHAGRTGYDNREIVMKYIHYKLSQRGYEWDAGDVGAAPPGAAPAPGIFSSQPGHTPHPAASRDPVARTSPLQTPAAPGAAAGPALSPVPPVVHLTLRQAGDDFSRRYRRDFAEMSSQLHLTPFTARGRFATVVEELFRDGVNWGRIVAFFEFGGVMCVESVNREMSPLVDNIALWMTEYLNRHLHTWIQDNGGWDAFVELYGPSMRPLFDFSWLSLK
quantity-measured: pIC50
Please report pIC50 as the negative decimal logarithm of the molar concentration, giving only the number.

[in] // lookup pIC50 for O=S(=O)(O)c1cccc2cccc(Nc3ccccc3)c12 [Compound 5255876]
[out] 4.90

====

Target: GST-Bfl-1 (Homo sapiens)
Construct: lacking their C-terminal transmembrane domains (about the last 20 amino acids) (“ΔTM”); made in house; host or cells: XL-1 Blue E. coli, pGEX 4T-1
Sequence (Q16548 1-155 limits assumed): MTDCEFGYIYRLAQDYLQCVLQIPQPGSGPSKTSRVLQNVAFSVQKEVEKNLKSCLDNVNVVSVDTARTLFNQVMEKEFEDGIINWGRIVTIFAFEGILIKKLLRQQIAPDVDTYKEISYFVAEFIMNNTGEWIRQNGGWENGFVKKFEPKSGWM
Assay: Bfl-1/FITC-Bid BH3 competitive fluorescence polarization assay
Type: binding
Conditions: primary HTS hits, MLSCN library (PubChem SIDs), Table 5B
Procedure: A FPA was performed to determine the binding affinity of FITC-Bid BH3 peptide to Bcl-2 proteins. […] IC50 determinations were performed using GraphPad Prism software (GraphPad, Inc., San Diego, Calif.). […] Fluorescence polarization was measured after 10 min. Compounds that reduced the fluorescence polarization by 50% were considered hits.
Classification by FRatio | ranges: low (below 0.8), mid (0.8 to below 1), high (1 or more)

[in] Which category fits this record: COc1ccc(NC(=O)c2cc(CN3C(=O)c4ccccc4C3=O)ccc2OC)cn1 [Compound 3713992]
[out] high

[in] Can you handle C=CCn1c(SCc2cc(=O)n3ccsc3n2)nnc1C1CCCCC1 [Compound 3716212] next?
[out] low

[in] Can you handle Clc1ccc2nc(CN3CCCc4ccccc43)cn2c1 [Compound 3711377] next?
[out] low

[in] Can you handle COc1ccc(S(=O)(=O)N2Cc3ccccc3CC2C(=O)O)cc1 (stereo not drawn) [Compound 16953199] next?
[out] mid

More entries:
[in] Which category fits this record: C[C@@H](C(=O)Nc1nc(-c2ccccn2)cs1)N1C(=O)C2CCCCC2C1=O (stereo partly drawn) [Compound 16952892]
[out] high

====

Here the recorded inhibition at 0.02 µM is given for each entry.
Target: GST-Bcl-B (Homo sapiens, UniProt Q9HD36)
Sequence (Q9HD36 1-182 limits assumed): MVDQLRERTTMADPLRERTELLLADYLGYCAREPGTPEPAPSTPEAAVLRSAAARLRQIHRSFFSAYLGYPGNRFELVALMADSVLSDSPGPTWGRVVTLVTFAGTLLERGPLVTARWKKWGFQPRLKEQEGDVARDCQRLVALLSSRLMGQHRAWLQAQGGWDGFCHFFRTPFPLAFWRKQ
Experiment: Bcl-B/FITC-TR3-r8 fluorescence polarization competition (displacement) assay, HTS and dose-response
Details: read-out: Result Value (Result Type % Inhibition), BCL-b/TR3

Below are worked cases with known answers.
[in] // lookup inhibition at 0.02 µM for O=[N+]([O-])c1ccc2c(/N=N/c3c(O)ccc4ccccc34)c(O)cc(S(=O)(=O)O)c2c1 [Compound 73413]
[out] 125%

[in] Can you handle COC1/C2=C(\O)C3(C)Oc4c5c(O)c6c(O)c(c(CN(C)C)c(O)c6c4C3=O)NC(=O)/C(C)=C\C=C/CC(O)C(C)C(O5)C(C)C(OC2=O)C1C (stereo not shown) [Compound 145612] next?
[out] 54%

[in] Can you handle Cc1ccc(/N=N/c2c(O)c(S(=O)(=O)O)cc3cc(S(=O)(=O)O)ccc23)c(C)c1 [Compound 10455] next?
[out] 50.7%

[in] Can you handle CS(=O)(=O)Nc1ccc(Nc2c3ccccc3nc3ccccc23)cc1 [Compound 156305] next?
[out] 58.6%

[in] Can you handle O=C(O)c1cccc(/N=N/c2c(S(=O)(=O)O)ccc3c2C(=O)c2ccccc2C3=O)c1O [Compound 125908] next?
[out] 124%

More entries:
[in] // lookup inhibition at 0.02 µM for CN(C)S(=O)(=O)c1ccc(Nc2ccc(O)c3c2C(=O)c2c([N+](=O)[O-])ccc(O)c2C3=O)cc1 [Compound 117949]
[out] 50.3%

[in] Can you handle Cc1ccc(/N=N/c2c(O)ccc3cc(S(=O)(=O)O)ccc23)cc1 [Compound 7814] next?
[out] 54.3%

====

target: UniProt Q9HD36; assay: Bcl-B/FITC-TR3-r8 fluorescence polarization competition (displacement) assay, HTS and dose-response
quantity-measured: EC50 (µM)
Write down the numeric answer in µM and omit the unit.

[in] // lookup EC50 for Cc1cc(C)nc(NC(=N)Nc2cccc(N)c2)n1 [Compound 5804000]
[out] 5.6

[in] Can you handle Cc1ccc(C)n1-c1ccc(Br)cc1C(=O)O [Compound 5954623] next?
[out] 2.1

Data provenance: patent US20090118135A1
